- System: 786-0 renal
- method.notes: NCI tumour cell line growth inhibition, 48 h

# molecule, TGI
rows = [
    ("CCOC(=O)C1(O)C(=O)C2=C3C(=O)OC(C4OC(=O)c5c(c(O)c(O)c(O)c5C31)-c1c(cc(O)c(O)c1O)C(=O)OC1COC(=O)c3cc(O)c(O)c(O)c3-c3c(cc(O)c(O)c3O)C(=O)OC14)[C@@H]2O (stereo partly drawn)", "39.4 µM"),
    ("C1CSCCCSCCCSCCCSCCCSC1", "> 100 µM"),
    ("C=C1CCC2C(C)(CO)C(O)CCC2(C)C1CC(O)/C(=C/CO)C(=O)O (stereo not drawn)", "> 100 µM"),
]
